Where do these numbers come from? They come from patent US20240000734A1.

- protocol.description: clinical
- measurement.setup: both, human, in vivo, po, 800 mg, AUC0^∞
readout.name: AUC (µg·h/mL)
Please give a number only; it is taken to be in µg·h/mL.

Inquiry: For CC(C)Cc1ccc(C(C)C(=O)O)cc1 (racemic) [Ibuprofen, (±)-2-(4-isobutylphenyl) propionic acid] , what is its reported AUC?
Reply text: 192

====

- protocol.description: clinical
- measurement.setup: both, human, in vivo, po, 800 mg
readout.name: Tmax (h)
Form entry: value (h) — number only.

Inquiry: Bench note: what Tmax did CC(C)Cc1ccc(C(C)C(=O)O)cc1 (racemic) [Ibuprofen, (±)-2-(4-isobutylphenyl) propionic acid] show?
Reply text: 1.35
